# System: Klebsiella pneumoniae
# experimental.protocol: Antibacterial activity against clinically isolated strains, MIC
# Assay type: cell-based
# measurement.context: 10 clinical isolates, broth microdilution test, read-out: MIC 90%
observable: MIC90 (µg/mL)
Report the value in µg/mL with no unit label.

Before answering, review these 4 worked examples.
CC(O/N=C(\C(=O)NC1C(=O)N2C(C(=O)[O-])=C(CSc3nc(N)cc(N)[n+]3C)CSC12)c1csc(N)n1)C(=O)O (centres unmarked) [Compound I-4]; 0.13
C[n+]1c(N)cc(N)nc1SCC1=C(C(=O)[O-])N2C(=O)C(NC(=O)/C(=N\OC(C)(C)C(=O)O)c3csc(N)n3)[C@H]2SC1 (some centres unmarked) [Compound I-1]; 0.13
C#CCO/N=C(\C(=O)NC1C(=O)N2C(C(=O)[O-])=C(CSc3nc(N)cc(N)[n+]3N)CSC12)c1csc(N)n1 (centres unmarked) [Compound I-18]; 0.13
CC[n+]1c(N)cc(N)nc1SCC1=C(C(=O)[O-])N2C(=O)C(NC(=O)/C(=N\OC(C)C(=O)O)c3csc(N)n3)C2SC1 (centres unmarked) [Compound I-5]; 0.25

Enquiry: Dear colleague, please send me the reported MIC90 for CC(O/N=C(\C(=O)NC1C(=O)N2C(C(=O)[O-])=C(CSc3nc(N)cc(N)[n+]3N)CSC12)c1csc(N)n1)C(=O)O (centres unmarked) [Compound I-14] when you can.
Return: 0.063

Enquiry: Quickly give me recorded MIC90 for Cc1c(N)nc(SCC2=C(C(=O)[O-])N3C(=O)C(NC(=O)/C(=N\OC(C)(C)C(=O)O)c4csc(N)n4)C3SC2)[n+](C)c1N (centres unmarked) [Compound I-30]
Return: 0.25

Enquiry: Recall and state the measured MIC90 for CCO/N=C(\C(=O)NC1C(=O)N2C(C(=O)[O-])=C(CSc3nc(N)cc(N)[n+]3C)CSC12)c1nsc(N)n1 (centres unmarked) [Compound I-20] .
Return: 0.13

Enquiry: Supply recorded MIC90 for C[n+]1c(N)cc(N)nc1SCC1=C(C(=O)[O-])N2C(=O)C(NC(=O)/C(=N\OCC(=O)O)c3csc(N)n3)C2SC1 (centres unmarked) [Compound I-7] here.
Return: 0.031

----------
# experimental.protocol: In-vivo absorbency (plasma concentrations & pharmacokinetic parameters)
# Parameters: species or system SD rat (male)
# measurement.context: rat, in vivo, iv, 20 mg/kg
observable: concentration at 40 min (ng/mL)
Field format: number, assumed ng/mL, no unit text.

Enquiry: Please supply the value of reported concentration at 40 min for the item CC(C)(O/N=C(\C(=O)N[C@@H]1C(=O)N2C(C(=O)[O-])=C(C[n+]3ccccc3)CS[C@H]12)c1csc(N)n1)C(=O)O [Ceftazidime, reference compound]
Return: 10000

----------
# experimental.protocol: In-vivo absorbency (plasma concentrations & pharmacokinetic parameters)
# Design: species or system SD rat (male)
# measurement.context: plasma; 60 min; SD male rat, iv 20 mg/kg; read-out: Plasma Conc.
Catalogue of concentration at 1 h readings, one per entry.
Express the result in ng/mL but write the number alone.

Please review the entries below; each comes with its answer.
CCC[n+]1c(N)cc(N)nc1SCC1=C(C(=O)[O-])N2C(=O)C(NC(=O)/C(=N\OC(C)C(=O)O)c3csc(N)n3)C2SC1 (stereo not drawn) [Compound I-45]; 11000
CC[n+]1c(N)cc(N)nc1SCC1=C(C(=O)[O-])N2C(=O)C(NC(=O)/C(=N\OC(C)(C)C(=O)O)c3csc(N)n3)C2SC1 (stereo not drawn) [Compound I-2]; 2600

Now look at this entry.
Enquiry: Return value of concentration at 1 h for input CC[n+]1c(SCC2=C(C(=O)[O-])N3C(=O)C(NC(=O)/C(=N\OC(C)(C)C(=O)O)c4csc(N)n4)C3SC2)nc(N)c(C)c1N (stereo not drawn) [Compound I-32] , no commentary.
Return: 7500

----------
# Tested on: Pseudomonas aeruginosa
# experimental.protocol: Antibacterial activity against clinically isolated strains, MIC
# Type: cell-based
# measurement.context: 54 clinical isolates, broth microdilution test, read-out: MIC 90%
Examples of compounds with documented MIC90 follow.
Quick note: give the figure in µg/mL, leave out the unit.

C#CCO/N=C(\C(=O)NC1C(=O)N2C(C(=O)[O-])=C(CSc3nc(N)cc(N)[n+]3N)CSC12)c1csc(N)n1 (centres unmarked); 8
C[n+]1c(N)cc(N)nc1SCC1=C(C(=O)[O-])N2C(=O)C(NC(=O)/C(=N\OC(C)(C)C(=O)O)c3csc(N)n3)[C@H]2SC1 (some centres unmarked); 4
Cc1c(N)nc(SCC2=C(C(=O)[O-])N3C(=O)C(NC(=O)/C(=N\OC(C)(C)C(=O)O)c4csc(N)n4)C3SC2)[n+](C)c1N (centres unmarked); 4
C#CCO/N=C(\C(=O)NC1C(=O)N2C(C(=O)[O-])=C(CSc3nc(N)cc(N)[n+]3C)CSC12)c1csc(N)n1 (centres unmarked); 8
CC[n+]1c(N)cc(N)nc1SCC1=C(C(=O)[O-])N2C(=O)C(NC(=O)/C(=N\OC(C)(C)C(=O)O)c3csc(N)n3)C2SC1 (centres unmarked); 4
CCO/N=C(\C(=O)NC1C(=O)N2C(C(=O)[O-])=C(CSc3nc(N)cc(N)[n+]3N)CSC12)c1nsc(N)n1 (centres unmarked); 8
CC(O/N=C(\C(=O)NC1C(=O)N2C(C(=O)[O-])=C(CSc3nc(N)cc(N)[n+]3N)CSC12)c1csc(N)n1)C(=O)O (centres unmarked); 4

# input for lookup
Enquiry: Report MIC90 for CC[n+]1c(N)cc(N)nc1SCC1=C(C(=O)[O-])N2C(=O)C(NC(=O)/C(=N\OC(C)C(=O)O)c3csc(N)n3)C2SC1 (centres unmarked)
Return: 8

----------
Catalogue of MIC readings, one per entry.
# System: Salmonella typhimurium ATCC 14028
# experimental.protocol: Antibacterial activity, MIC
# Type: cell-based
# measurement.context: Salmonella enterica; ATCC 14028; agar two-fold dilution, 37° C., 20 hours; read-out: MIC
Answer in µg/mL, number only, no unit symbol.

C=CC[n+]1c(N)cc(N)nc1SCC1=C(C(=O)[O-])N2C(=O)C(NC(=O)/C(=N\OCC)c3nsc(N)n3)C2SC1 (stereo not shown); 2

Enquiry: # lookup: Salmonella typhimurium ATCC 14028 MIC, key = CO/N=C(\C(=O)NC1C(=O)N2C(C(=O)[O-])=C(CSc3nc(N)cc(N)[n+]3C)CSC12)c1csc(N)n1 (stereo not shown)
Return: 0.25

Enquiry: Using Salmonella typhimurium ATCC 14028 as the test system, report measured MIC of CCO/N=C(\C(=O)NC1C(=O)N2C(C(=O)[O-])=C(CSc3nc(N)cc(N)[n+]3C)CSC12)c1nsc(N)n1 (stereo not shown) .
Return: 0.5

Enquiry: Answer with MIC of COc1cccc(OC)c1-[n+]1c(N)cc(N)nc1SCC1=C(C(=O)[O-])N2C(=O)C(NC(=O)/C(=N\OC(C)(C)C(=O)O)c3csc(N)n3)C2SC1 (stereo not shown) measured for Salmonella typhimurium ATCC 14028.
Return: 2

Enquiry: Report MIC on Salmonella typhimurium ATCC 14028 for this entry: C#CCO/N=C(\C(=O)NC1C(=O)N2C(C(=O)[O-])=C(CSc3nc(N)cc(N)[n+]3C)CSC12)c1csc(N)n1 (stereo not shown)
Return: 0.25

Enquiry: Recall the reported MIC of CC(C)(O/N=C(\C(=O)NC1C(=O)N2C(C(=O)[O-])=C(CSc3nc(N)cc(N)[n+]3N)CSC12)c1nsc(N)n1)C(=O)O (stereo not shown) on Salmonella typhimurium ATCC 14028 and write it down.
Return: 0.5

Enquiry: Give reported MIC for CC[n+]1c(N)cc(N)nc1SCC1=C(C(=O)[O-])N2C(=O)C(NC(=O)/C(=N\OC(C)(C)C(=O)O)c3csc(N)n3)C2SC1 (stereo not shown) (Salmonella typhimurium ATCC 14028)
Return: 0.25

Enquiry: Enter measured MIC, system Salmonella typhimurium ATCC 14028, for the compound shown: CC[n+]1c(N)cc(N)nc1SCC1=C(C(=O)[O-])N2C(=O)C(NC(=O)/C(=N\OCC(=O)O)c3csc(N)n3)C2SC1 (stereo not shown)
Return: 0.063

Enquiry: Retrieve MIC on Salmonella typhimurium ATCC 14028; query Cc1c(N)nc(SCC2=C(C(=O)[O-])N3C(=O)C(NC(=O)/C(=N\OC(C)(C)C(=O)O)c4csc(N)n4)C3SC2)[n+](N)c1N (stereo not shown)
Return: 0.13

Enquiry: Give reported MIC for CCO/N=C(\C(=O)NC1C(=O)N2C(C(=O)[O-])=C(CSc3nc(N)cc(N)[n+]3-c3ccc(Cl)cc3)CSC12)c1csc(N)n1 (stereo not shown) (Salmonella typhimurium ATCC 14028)
Return: 2

Enquiry: State MIC on Salmonella typhimurium ATCC 14028. Entry: CCc1c(N)nc(SCC2=C(C(=O)[O-])N3C(=O)C(NC(=O)/C(=N\OC(C)(C)C(=O)O)c4csc(N)n4)C3SC2)[n+](C)c1N (stereo not shown)
Return: 0.25

Enquiry: System Salmonella typhimurium ATCC 14028. Read-out MIC. Item C=CC[n+]1c(N)cc(N)nc1SCC1=C(C(=O)[O-])N2C(=O)C(NC(=O)/C(=N\OCC(=O)O)c3csc(N)n3)C2SC1 (stereo not shown) . Report value.
Return: 0.13

Enquiry: Give MIC; test system Salmonella typhimurium ATCC 14028; compound CCO/N=C(\C(=O)NC1C(=O)N2C(C(=O)[O-])=C(CSc3nc(N)cc(N)[n+]3N)CSC12)c1csc(N)n1 (stereo not shown)
Return: 0.25
